Origin of the recorded values: patent US20260317430

Molecular target: human FGFR2b extracellular domain (human, UniProt P21802)
Sequence (P21802 22-377): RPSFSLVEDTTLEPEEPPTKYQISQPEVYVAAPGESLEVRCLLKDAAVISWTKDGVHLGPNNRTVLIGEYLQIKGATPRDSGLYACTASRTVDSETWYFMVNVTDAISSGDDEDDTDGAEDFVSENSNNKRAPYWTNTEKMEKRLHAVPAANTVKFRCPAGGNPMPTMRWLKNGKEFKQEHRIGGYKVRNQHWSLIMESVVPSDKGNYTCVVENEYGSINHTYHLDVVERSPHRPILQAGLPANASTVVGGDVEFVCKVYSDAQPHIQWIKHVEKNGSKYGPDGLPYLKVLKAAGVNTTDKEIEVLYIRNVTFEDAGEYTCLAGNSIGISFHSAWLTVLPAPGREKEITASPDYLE
Experiment: ELISA
Entries and their EC50
Report only the number, with the unit µg/mL understood.

Worked examples follow.
The measured EC50 associated with 1C10 (antibody, V domains shown) VH: QVQLQQSGAELVKPGASVKMSCKASGYTFRYYNMHWVKRTPGQGLEWIGLIYPDNGDTSYNQKFKGKATLTADTSSSTAYMQLSSLTSEDSAVYYCARGGLDYWGQGTSLTVSS VL: DIVMTQSPASLSASVGETVTITCRASGNIHNYLAWYQQKQGKSPQLLVYNAKTLADGVPSRFSGSGSGTQYSLKINSLQPEDFGSYYCQHFWSTPYTFGGGTKLEMK reads 0.0159

Looking up 3D7 (antibody, V domains shown) VH: QVQLQQSGAELVKPGASVKMSCKASGYTFSFYNMHWVKRTPGRGLEWIGLIYPDNGDTSYNQKFKGKATLTADTSSSTAYMQLSSLTSEDSAVYYCARGGLDYWGQGTSLTVSS VL: EIVLTQSPASLAVSLGQRATISCKASQSVDYDGDSYMNWYQQKPGQPPKLLIYGISNRFSGVPDRFSGSGSGTDFTLKISTIKPEDLGMYYCLQGTHQPYTFGGGTKLEIK , I see its EC50 listed as 0.0369

What the record says about 3C9 (antibody, V domains shown) VH: EIQLQQSGAELVKPGASVKMSCKASGYIFRYYNMHWVKRTPGQGLEWIGLIYPDNGDTSYNQKFKGKATLTADTSSSTAYMQLSSLTSEDSAVYYCARGGLDYWGQGTTLTVSS VL: DIQMIQSPASLSASVGETVTITCGASENIYGALNWYQRKQGKSPQLLIYGATNLADGMSSRFSGSGSGRQYSLKISSLHPDDVATYYCQNVLSTPYTFGGGTKLEIK : EC50 is 0.0147

Lookup result for 2B2 (antibody, V domains shown) VH: QLQLQQSGAELVKPGASVKMSCKASGYTFASYNLHWVKQTPGQGLEWIGLIYPENGDTSYNQKFKDKATLTADKSSTTAYIQLSSLASEDSAVYFCARGGFDYWGQGTTLTVSS VL: DIVMTQSQKFMSTSVGDRVSVTCKASQNVGTNVAWYQQKPGQSPKALIYSASYRYSGVPDRFTGSGSGTDYTLTISSVQAEDLALYYCQQHYSTPYTFGGGTKLELK ; measured EC50: 0.0216

Continuing:
EC50 reading for 3E3 (antibody, V domains shown) VH: QVQLQQPGAVLVKPGASVRMSCKASGYTFPYYNVHWVKRTPGQGLEWIGLIYPDNGDTSYNQKFTGKATLTADTSSSTAYMQLSSLTSEDSAVYYCARGGLDYWGQGTTLTVSA VL: DVQITQSPASLSASVGETVTITCGASENIYGALNWYQRKQGKSPQLLIYGATNLADGMSSRFSGSGSGRQYSLKISSLHPDDVATYYCQNVLSTPYTFGGGTKLEIK : 0.0273

Value of EC50 reported for the binder 2B1 (antibody, V domains shown) VH: EVQLQQSGAELVKPGASVKMSCKASGYTFASYNLHWVKQTPGQGLEWIGLIYPENGDTSYNQKFKGKATLTADKSSSTAYIQLSSLTSEDSAVYFCARGGFDYWGQGTSLTVSS VL: DIQMIQSPASLSVSVGETVTITCRASENIYSNLAWYQQKQGKSPQLLVYNAKTLADGVPSRFSGSGSGTQYSLKINSLQPEDFGSYYCQHFWSTPYTFGGGTKLEIK is 0.0276

Given item 3C7 (antibody, V domains shown) VH: EIQLQQSGAELVKPGASVKMSCKASGYIFRNYYIHWVKRTPGQGLEWIGAIYPDNGDTSYNQRFKVKATLTADTSSSTAYMQLSSLTSEDSAVYYCARAFTYWGQGTTLTVSS VL: DIQMIQSPASLSASVGETVTITCGASENIYGALNWYQRKQGKSPQLLIYGATNLADGMSSRFSGSGSGRQYSLKISSLHPDDVATYYCQNVLSTPYTFGGGTKLEIK , the value recorded as its EC50 is 0.0166

Item: 3D6 (antibody, V domains shown) VH: QVQLQQSGAELVKPGASVKMSCKASGYTFRYYNMHWVKRTPGQGLEWIGLIYPDNGDTSYNQKFKGKATLTADTSSSTAYMQLSSLTSEDSAVYYCARGGLDYWGQGTSLTVSS VL: DIQMTQSPASLSVSVGETVTITCRASENIYSNLAWYQQKQGKSPQLLVYNAKTLADGVPSRFSGSGSGTQYSLKINSLQPEDFGSYYCQHFWSTPFTFGSGTKLELK | EC50: 0.0369

Value of EC50 reported for the binder 3B7 (antibody, V domains shown) VH: EVQLQQSGAELVKPGASVKMSCKASGYTFRYYNMHWVKRTPGQGLEWIGLIYPDNGDTSYNQKFKGKATLTADTSSSTAYMQLSSLTSEDSAVYYCARGGFDYWGQGTTLTVSS VL: DIQMTQSPASLSASVGETVTITCGASENIYGALNWYQRKQGKSPQLLIYGATNLADGMSSRFSGSGSGRQYSLKISSLHPDDVATYYCQNVLSTPYTFGGGTKLELK is 0.0147

Lab note: 1G6 (antibody, V domains shown) VH: EIQLQQSGAELVKPGASVKMSCKASGYTFRYYNMHWVKRTPGQGLEWIGLIYPDNGDTSYNQKFKGKATLTADTSSSTAYMQLSSLTSEDSAVYYCARGGLDYWGQGTSLTVSS VL: NIVMTQSHKFMSTSVGDRVSITCKASQDVNTDVAWYQQKPGQSPKLLIYSASYRYTGVPTRFTGSGSGTDFTFTISGVQAEDLADYYCQQHYNTPYTFGGGTKLELK gave EC50 of 0.0235
